Source of measurements: patent US11760755B2

test system: HBV; assay: HepAD38 antiviral assay: reduction of viral product accumulation (virion DNA by qPCR, HBsAg/HBeAg by ELISA); type: cell-based, hepatitis B virus; conditions: Hepatitis B virus; HepAD38 cells; 50% reduction of viral product accumulation relative to no drug controls; class symbols; read-out: HepAD38 EC50
quantityName: EC50

[
  {
    "compound": "O=C(N[C@H]1CC2=C(c3ccn(C(F)F)n3)[C@H](c3ccc(F)cc3Cl)N=C(c3nccs3)N2C1)N1C[C@H]2CC[C@@H](C1)[C@H]2O",
    "testSystem": "HBV",
    "quantityName": "EC50",
    "observedMeasurement": "0.1 to 1 µM"
  },
  {
    "compound": "O=C1CC2CC[C@@H](C1)[C@H]2S(=O)(=O)N[C@H]1CC2=C(c3ccn(C(F)F)n3)[C@H](c3ccc(F)cc3Cl)N=C(c3nccs3)N2C1",
    "testSystem": "HBV",
    "quantityName": "EC50",
    "observedMeasurement": "< 0.1 µM"
  },
  {
    "compound": "O=S(=O)(N[C@H]1CC2=C(c3ccn(C(F)F)n3)[C@H](c3ccc(F)cc3Cl)N=C(c3nccs3)N2C1)N1CC2CCC(C1)O2",
    "testSystem": "HBV",
    "quantityName": "EC50",
    "observedMeasurement": "< 0.1 µM"
  },
  {
    "compound": "C[C@]1(O)C2CCC1C[C@@H](S(=O)(=O)N[C@H]1CC3=C(c4ccn(C(F)F)n4)[C@H](c4ccc(F)cc4Cl)N=C(c4nccs4)N3C1)C2",
    "testSystem": "HBV",
    "quantityName": "EC50",
    "observedMeasurement": "< 0.1 µM"
  },
  {
    "compound": "O=S(=O)(N[C@H]1CC2=C(c3ccn(C(F)F)n3)[C@H](c3ccc(F)cc3Cl)N=C(c3nccs3)N2C1)N1CC2CCC(C1)C2(O)c1ccccn1 (some centres unmarked)",
    "testSystem": "HBV",
    "quantityName": "EC50",
    "observedMeasurement": "< 0.1 µM"
  },
  {
    "compound": "O=S(=O)(N[C@H]1CC2=C(c3ccn(C(F)F)n3)[C@H](c3ccc(F)cc3Cl)N=C(c3nccs3)N2C1)[C@H]1C2CC[C@H]1C[C@@](O)(CO)C2",
    "testSystem": "HBV",
    "quantityName": "EC50",
    "observedMeasurement": "< 0.1 µM"
  },
  {
    "compound": "C#C[C@]1(O)C2CCC1C[C@@H](S(=O)(=O)N[C@H]1CC3=C(c4ccn(C(F)F)n4)[C@H](c4ccc(F)cc4Cl)N=C(c4nccs4)N3C1)C2",
    "testSystem": "HBV",
    "quantityName": "EC50",
    "observedMeasurement": "< 0.1 µM"
  },
  {
    "compound": "O=S(=O)(N[C@H]1CC2=C(c3ccn(C(F)F)n3)[C@H](c3ccc(F)cc3Cl)N=C(c3nccs3)N2C1)[C@H]1CC2CCC(C1)[C@H]2O",
    "testSystem": "HBV",
    "quantityName": "EC50",
    "observedMeasurement": "< 0.1 µM"
  },
  {
    "compound": "O=S(=O)(N[C@H]1CC2=C(c3ccn(C(F)F)n3)[C@H](c3ccc(F)cc3Cl)N=C(c3nccs3)N2C1)N1CC2CCC(C1)C2O (some centres unmarked)",
    "testSystem": "HBV",
    "quantityName": "EC50",
    "observedMeasurement": "< 0.1 µM"
  },
  {
    "compound": "O=S(=O)(N[C@H]1CC2=C(c3ccn(C(F)F)n3)[C@H](c3ccc(F)cc3Cl)N=C(c3nccs3)N2C1)[C@H]1CC2CCC(C1)[C@]2(O)c1ccccn1",
    "testSystem": "HBV",
    "quantityName": "EC50",
    "observedMeasurement": "< 0.1 µM"
  },
  {
    "compound": "O=C1C2CCC1CC(S(=O)(=O)N[C@H]1CC3=C(c4ccn(C(F)F)n4)[C@H](c4ccc(F)cc4Cl)N=C(c4nccs4)N3C1)C2 (some centres unmarked)",
    "testSystem": "HBV",
    "quantityName": "EC50",
    "observedMeasurement": "0.1 to 1 µM"
  },
  {
    "compound": "O=S(=O)(N[C@H]1CC2=C(c3ccn(C(F)F)n3)[C@H](c3ccc(F)cc3Cl)N=C(c3nccs3)N2C1)[C@@H]1CC2CC[C@@H](C1)[C@@]2(O)c1cn(-c2ccccn2)nn1",
    "testSystem": "HBV",
    "quantityName": "EC50",
    "observedMeasurement": "< 0.1 µM"
  },
  {
    "compound": "O=S(=O)(N[C@H]1CC2=C(c3ccn(C(F)F)n3)[C@H](c3ccc(F)cc3Cl)N=C(c3nccs3)N2C1)[C@H]1C2CC[C@H]1C[C@@](O)(c1ccccn1)C2",
    "testSystem": "HBV",
    "quantityName": "EC50",
    "observedMeasurement": "< 0.1 µM"
  },
  {
    "compound": "O=C(N[C@H]1CC2=C(c3ccn(C(F)F)n3)[C@H](c3ccc(F)cc3Cl)N=C(c3nccs3)N2C1)N1C[C@H]2CC[C@@H](C1)[C@@H]2O",
    "testSystem": "HBV",
    "quantityName": "EC50",
    "observedMeasurement": "0.1 to 1 µM"
  },
  {
    "compound": "O=S(=O)(N[C@H]1CC2=C(c3ccn(C(F)F)n3)[C@H](c3ccc(F)cc3Cl)N=C(c3nccs3)N2C1)[C@H]1CC2CCC(C1)[C@]2(O)CO",
    "testSystem": "HBV",
    "quantityName": "EC50",
    "observedMeasurement": "< 0.1 µM"
  },
  {
    "compound": "O=S(=O)(C[C@H]1CC2=C(c3ccn(C(F)F)n3)[C@H](c3ccc(F)cc3Cl)N=C(c3nccs3)N2C1)N1CC2CC[C@@H](C1)[C@]2(O)c1ccccn1",
    "testSystem": "HBV",
    "quantityName": "EC50",
    "observedMeasurement": "< 0.1 µM"
  },
  {
    "compound": "O=S(=O)(NC1CC2CCC(C1)C2O)N[C@H]1CC2=C(c3ccn(C(F)F)n3)[C@H](c3ccc(F)cc3Cl)N=C(c3nccs3)N2C1 (some centres unmarked)",
    "testSystem": "HBV",
    "quantityName": "EC50",
    "observedMeasurement": "0.1 to 1 µM"
  }
]

---

assay: Compound toxicity, ATPLite total ATP levels; assay type: cell-based; settings: human, HepG2 cells, HepG2; three days after compound addition; 50% reduction of total ATP levels (ATPLite); read-out: HepG2 CC50
quantityName: CC50 at 3 days

[
  {
    "molecule": "O=S(=O)(N[C@H]1CC2=C(c3ccn(C(F)F)n3)[C@H](c3ccc(F)cc3Cl)N=C(c3nccs3)N2C1)[C@H]1CC2CCC(C1)[C@]2(O)c1ccccn1",
    "quantityName": "CC50 at 3 days",
    "observedMeasurement": "10 to 25 µM"
  },
  {
    "molecule": "O=C1CC2CC[C@@H](C1)[C@H]2S(=O)(=O)N[C@H]1CC2=C(c3ccn(C(F)F)n3)[C@H](c3ccc(F)cc3Cl)N=C(c3nccs3)N2C1",
    "quantityName": "CC50 at 3 days",
    "observedMeasurement": "> 25 µM"
  },
  {
    "molecule": "O=S(=O)(N[C@H]1CC2=C(c3ccn(C(F)F)n3)[C@H](c3ccc(F)cc3Cl)N=C(c3nccs3)N2C1)[C@H]1CC2CCC(C1)[C@]2(O)CO",
    "quantityName": "CC50 at 3 days",
    "observedMeasurement": "> 25 µM"
  },
  {
    "molecule": "O=S(=O)(N[C@H]1CC2=C(c3ccn(C(F)F)n3)[C@H](c3ccc(F)cc3Cl)N=C(c3nccs3)N2C1)[C@H]1C2CC[C@H]1C[C@@](O)(CO)C2",
    "quantityName": "CC50 at 3 days",
    "observedMeasurement": "> 25 µM"
  },
  {
    "molecule": "O=S(=O)(N[C@H]1CC2=C(c3ccn(C(F)F)n3)[C@H](c3ccc(F)cc3Cl)N=C(c3nccs3)N2C1)[C@H]1CC2CCC(C1)[C@H]2O",
    "quantityName": "CC50 at 3 days",
    "observedMeasurement": "10 to 25 µM"
  }
]
